Conditions: in isobutanol, 303.15 K
attribute measured: solubility (mole fraction)
Field format: numeric only.

**Q:** Need solubility (mole fraction), item Oc1ccc([C@@H]2COc3cc(O)ccc3C2)cc1
**A:** 0.0376

====

Settings: in n-butanol, 313.15 K
attribute measured: solubility (mole fraction)

**Q:** Need solubility (mole fraction), item Oc1ccc([C@@H]2COc3cc(O)ccc3C2)cc1
**A:** 0.0749

====

Details: in isopentanol, 283.15 K
attribute measured: solubility (mole fraction)
Field format: numeric only.

**Q:** Need solubility (mole fraction), item Oc1ccc([C@@H]2COc3cc(O)ccc3C2)cc1
**A:** 0.0301
